# Target of assay: human recombinant histamine H2 receptor (Homo sapiens, UniProt P25021)
# Construct: expressed in transfected cells; host or cells: CHO-K1 cells
# Sequence (P25021 whole entry): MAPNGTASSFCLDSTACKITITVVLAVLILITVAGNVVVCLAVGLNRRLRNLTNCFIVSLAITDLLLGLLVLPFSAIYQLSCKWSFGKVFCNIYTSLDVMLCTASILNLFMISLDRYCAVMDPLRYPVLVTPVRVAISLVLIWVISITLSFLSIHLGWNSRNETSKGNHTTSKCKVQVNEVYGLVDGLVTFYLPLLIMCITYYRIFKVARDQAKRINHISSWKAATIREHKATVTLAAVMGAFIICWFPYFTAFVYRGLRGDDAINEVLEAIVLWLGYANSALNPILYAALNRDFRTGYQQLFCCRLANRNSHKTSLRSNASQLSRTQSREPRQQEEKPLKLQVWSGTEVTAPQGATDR
# Assay: Histamine H2 radioligand binding ([125I]Aminopotentidine)
# Run parameters: 1 μM; inhibition of specific [125I]Aminopotentidine binding; read-out: Binding data (Percentage Inhibition) Histamine Binding (1 μM) H2
Property name: inhibition at 1 µM (%)

[[record]]
molecule = "C/C(=C/n1c2c(c3cc(C)ccc31)CCN(C)C2C)c1ccc(F)c(F)c1 (stereo not drawn)"
target_of_assay = "human recombinant histamine H2 receptor (Homo sapiens, UniProt P25021)"
quantitative_readout = 60

[[record]]
molecule = "C/C(=C\\n1c2c(c3cc(Cl)ccc31)CCN(C)C2C)c1ccccc1F (stereo not drawn)"
target_of_assay = "human recombinant histamine H2 receptor (Homo sapiens, UniProt P25021)"
quantitative_readout = 64

[[record]]
molecule = "CCC1c2c(c3cc(Cl)ccc3n2/C=C(\\C)c2ccc(F)c(F)c2)CCN1C (stereo not drawn)"
target_of_assay = "human recombinant histamine H2 receptor (Homo sapiens, UniProt P25021)"
quantitative_readout = 38

[[record]]
molecule = "CN1CCc2c(n(CCCc3ccccc3)c3ccc(Cl)cc23)C1"
target_of_assay = "human recombinant histamine H2 receptor (Homo sapiens, UniProt P25021)"
quantitative_readout = 60

[[record]]
molecule = "CCC1c2c(c3cc(C)ccc3n2C#Cc2ccc(Cl)cc2)CCN1C (stereo not drawn)"
target_of_assay = "human recombinant histamine H2 receptor (Homo sapiens, UniProt P25021)"
quantitative_readout = 33

[[record]]
molecule = "Cc1ccc(CCn2c3c(c4cc(Cl)ccc42)CCN(C)C3C)cn1 (stereo not drawn)"
target_of_assay = "human recombinant histamine H2 receptor (Homo sapiens, UniProt P25021)"
quantitative_readout = 18

[[record]]
molecule = "CC1c2c(c3cc(Cl)ccc3n2C#Cc2ccc(Cl)cc2)CCN1C (stereo not drawn)"
target_of_assay = "human recombinant histamine H2 receptor (Homo sapiens, UniProt P25021)"
quantitative_readout = 57

[[record]]
molecule = "COc1ccc(C(O)Cn2c3c(c4cc(C)ccc42)CCN(C)C3)cc1OC (stereo not drawn)"
target_of_assay = "human recombinant histamine H2 receptor (Homo sapiens, UniProt P25021)"
quantitative_readout = 1

[[record]]
molecule = "Cc1ccc2c(c1)c1c(n2CC(O)c2ccccc2)CN(C)CC1 (stereo not drawn)"
target_of_assay = "human recombinant histamine H2 receptor (Homo sapiens, UniProt P25021)"
quantitative_readout = 8


----------
# Target of assay: human recombinant histamine H2 receptor (Homo sapiens, UniProt P25021)
# Construct: expressed in transfected cells; host or cells: CHO-K1 cells
# Assay: Histamine H2 radioligand binding ([125I]Aminopotentidine)
# Run parameters: 1 μM; inhibition of specific [125I]Aminopotentidine binding; read-out: Binding data (Percentage Inhibition) Histamine Binding (1 μM) H2
# Experimental: To evaluate in radioligand binding assays the activity of compounds of the invention, human recombinant histamine H2 receptor expressed in Chinese hamster ovary (CHO) K1 cells (Ruat, M., Proc. Natl. Acad. Sci. USA. 87(5):1658, 1990) in a 50 mM Phosphate buffer, pH 7.4 was used. […] Receptor proteins were filtered and washed, the filters were then counted to determine [^125I]Aminopotentidine specifically bound. […]
Tick t if inhibition at 1 µM is 50% or greater. Tick f if inhibition at 1 µM is less than 50%.

[[record]]
molecule = "Cc1ccc2c(c1)c1c(n2CC(C)(O)c2ccc(F)cc2)CN(C)CC1 (stereo not drawn) [Compound 61]"
category_label = "f"

[[record]]
molecule = "C/C(=C\\n1c2c(c3cc(C)ccc31)CCN(C)C2)c1ccc(Cl)c(Cl)c1 [Compound 113]"
category_label = "t"

[[record]]
molecule = "Cc1ccc2c(c1)c1c(n2C#Cc2ccc(Cl)cc2)C(C)N(C)CC1 (stereo not drawn) [Compound 172]"
category_label = "f"

[[record]]
molecule = "Cc1ccc2c(c1)c1c(n2CCc2ccc(C)nc2)CN(C)CC1 [Compound 1]"
category_label = "f"

[[record]]
molecule = "C/C(=C\\n1c2c(c3cc(Cl)ccc31)CCN(C)C2C)c1ccc(F)c(F)c1 (stereo not drawn) [Compound 111]"
category_label = "t"

[[record]]
molecule = "CCC1c2c(c3cc(C)ccc3n2/C=C(\\C)c2ccc(Cl)c(Cl)c2)CCN1C (stereo not drawn) [Compound 177]"
category_label = "f"

[[record]]
molecule = "C/C(=C\\n1c2c(c3cc(C)ccc31)CCN(C)C2)c1ccc(F)c(F)c1 [Compound 109]"
category_label = "t"

[[record]]
molecule = "COC(=O)Cn1c2c(c3cc(Cl)ccc31)CCN(C)C2 [Compound 54]"
category_label = "f"

[[record]]
molecule = "CCC1c2c(c3cc(Cl)ccc3n2/C=C(\\C)c2cccnc2)CCN1C (stereo not drawn) [Compound 108]"
category_label = "f"

[[record]]
molecule = "CN1CCc2c(n(CCCC(=O)N3CCCCC3)c3ccc(Cl)cc23)C1 [Compound 44]"
category_label = "f"

[[record]]
molecule = "C/C(=C\\n1c2c(c3cc(C)ccc31)CCN(C)C2C)c1ccccc1F (stereo not drawn) [Compound 166]"
category_label = "t"

[[record]]
molecule = "CC1c2c(c3cc(Cl)ccc3n2CCc2ccc(F)cc2)CCN1C (stereo not drawn) [Compound 81]"
category_label = "t"

[[record]]
molecule = "CN1CCc2c(n(CC(=O)N(C)C)c3ccc(Cl)cc23)C1 [Compound 16]"
category_label = "f"

[[record]]
molecule = "CN1CCc2c(n(CCN3CCCCC3)c3ccc(Cl)cc23)C1 [Compound 34]"
category_label = "f"

[[record]]
molecule = "CC(C)CCN(C)C(=O)Cn1c2c(c3cc(Cl)ccc31)CCN(C)C2 [Compound 14]"
category_label = "f"

